Parameter: pKd. Scope: all listed entries.
ASSAY_SYSTEM: T1, recombinant human CLL-1 extracellular domain (ECD, amino acids 65-265) fused to an N-terminal Flag (human, UniProt Q5QGZ9 65-265)
T1 construct: The construct and the K244Q SNP are stated for the immunogen; they are not written as a piece; also called huCLL-1-Flag; huCLL-1
T1 chain: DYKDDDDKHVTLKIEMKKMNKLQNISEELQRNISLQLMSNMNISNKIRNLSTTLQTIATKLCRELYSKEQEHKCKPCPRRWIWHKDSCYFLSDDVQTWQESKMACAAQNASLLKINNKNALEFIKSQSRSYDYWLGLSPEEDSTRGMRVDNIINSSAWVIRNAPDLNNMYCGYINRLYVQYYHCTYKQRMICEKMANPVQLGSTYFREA
ASSAY_REMARKS: SPR (Biacore T200), IgG captured by anti-human Fc, CLL-1 as analyte
pKd (log units): -log10 of the concentration in mol/L.

So, 6E7.L4H1eA54 (antibody, V domains shown, humanized IgG; also called 6E7.L4H1eN54A; h6E7A) VH: EVQLVQSGAEVKKPGASVKVSCKASGYSFTDYYMHWVRQAPGQGLEWIGRINPYAGAAFYSQNFKDRVTLTVDTSTSTAYLELSSLRSEDTAVYYCAIERGADLEGYAMDYWGQGTLVTVSS VL: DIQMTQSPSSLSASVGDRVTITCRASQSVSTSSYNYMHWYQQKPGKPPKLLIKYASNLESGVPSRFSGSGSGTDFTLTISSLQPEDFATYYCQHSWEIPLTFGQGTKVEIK ? Its pKd was 8.51

For reference, reported pKd for 6E7.L4H1eS54 (antibody, V domains shown, IgG) VH: EVQLVQSGAEVKKPGASVKVSCKASGYSFTDYYMHWVRQAPGQGLEWIGRINPYSGAAFYSQNFKDRVTLTVDTSTSTAYLELSSLRSEDTAVYYCAIERGADLEGYAMDYWGQGTLVTVSS VL: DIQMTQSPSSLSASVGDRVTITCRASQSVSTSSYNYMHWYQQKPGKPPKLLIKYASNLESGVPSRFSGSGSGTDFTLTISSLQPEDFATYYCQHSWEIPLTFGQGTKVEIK stands at 7.85
